Tested on: Staphylococcus aureus
Protocol Details: Antibacterial activity against Staphylococcus aureus ATCC 25923 assessed as reduction in bacterial growth incubated for 24 hrs by CLSI based Mueller-Hinton broth assay
Format: functional
Parameter Measured: MIC50
Give the number first and the unit second.

[ask] Tell me MIC50 reported for "C[C@H]1CCC[C@@H]([C@H](O)c2ccoc2)C1=O"
[reply] 512 µg/mL

[ask] Tell me MIC50 reported for "CC(=O)O[C@H](c1ccoc1)[C@@H]1CCC[C@H](C)C1=O"
[reply] 12 µg/mL

[ask] Tell me MIC50 reported for "CC(=O)O[C@@H](c1ccoc1)[C@@H]1CCC[C@H](C)C1=O"
[reply] 12 µg/mL

[ask] Tell me MIC50 reported for "C[C@H]1CCC[C@@H]([C@@H](O)c2ccoc2)C1=O"
[reply] 512 µg/mL
